experimental-target: Neuromedin-B receptor (Homo sapiens, UniProt P28336)
Sequence (P28336 whole entry): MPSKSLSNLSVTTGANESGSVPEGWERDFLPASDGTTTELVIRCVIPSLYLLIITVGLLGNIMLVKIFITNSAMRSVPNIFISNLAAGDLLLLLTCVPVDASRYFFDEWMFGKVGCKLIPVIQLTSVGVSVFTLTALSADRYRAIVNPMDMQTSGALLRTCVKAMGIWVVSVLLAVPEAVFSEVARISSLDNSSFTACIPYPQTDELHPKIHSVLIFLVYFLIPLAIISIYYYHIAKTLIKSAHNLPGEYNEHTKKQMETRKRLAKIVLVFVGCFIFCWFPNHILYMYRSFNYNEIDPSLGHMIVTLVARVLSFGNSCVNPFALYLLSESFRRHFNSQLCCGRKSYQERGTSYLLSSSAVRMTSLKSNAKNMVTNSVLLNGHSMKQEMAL
test-details: Displacement of [125I]-(D-Tyr0)NMB from human neuromedin B receptor transfected in HEK293 cells
Format: cell-based
pIC50: −log10 of the molar value.
endpoint-label: pIC50

# count of solved cases: 6
- CC1(C)CC(=O)C2=C(C1)Nc1ccc(C(=O)O)cc1NC2c1c(F)cccc1Cl (stereo unspecified): 5.00
- Cc1ccc2c(c1)NC(c1ccccc1C(F)(F)F)C1=C(CC(C)(C)CC1=O)N2 (stereo unspecified): 6.60
- Cc1ccc2c(c1)NC(c1c(F)cccc1Cl)C1=C(CCCC1=O)N2 (stereo unspecified): 5.85
- Cc1ccc2c(c1)NC(c1ccccc1Cl)C1=C(CC(C)(C)CC1=O)N2 (stereo unspecified): 6.55
- Cc1ccc2c(c1)NC(c1ccccc1F)C1=C(CC(C)(C)CC1=O)N2 (stereo unspecified): 5.89
- Cc1ccc2c(c1)NC(c1c(F)cccc1Cl)C1=C(CC3(CCCC3)CC1=O)N2 (stereo unspecified): 6.55

(a) Cc1ccc2c(c1)NC(c1c(F)cccc1F)C1=C(CC(C)(C)CC1=O)N2 (stereo unspecified)
(b) CCCCN1c2cc(C)ccc2NC2=C(C(=O)CC(C)(C)C2)C1c1c(F)cccc1Cl (stereo unspecified)
(c) Cc1ccc2c(c1)NC(c1ccccc1SC(F)(F)F)C1=C(CC3(CCCC3)CC1=O)N2 (stereo unspecified)
(d) CC1(C)CC(=O)C2=C(C1)Nc1ccc(C(N)=O)cc1NC2c1c(F)cccc1Cl (stereo unspecified)
Prompt: Task field, ranking: reported pIC50, descending order. # output: labels, in the requested order
Completion: b, c, a, d

(1) Cc1ccc2c(c1)NC(c1ccccc1[N+](=O)[O-])C1=C(CC(C)(C)CC1=O)N2 (stereo unspecified)
(2) Cc1ccc2c(c1)NC(c1ccccc1C(F)(F)F)C1=C(CC3(CCCC3)CC1=O)N2 (single isomer, unassigned; (+))
(3) Cc1ccc2c(c1)NC(c1c(F)cccc1Cl)C1=C(CCC1=O)N2 (stereo unspecified)
(4) CC1(C)CC(=O)C2=C(C1)Nc1ccc(OC(F)(F)F)cc1NC2c1c(F)cccc1Cl (stereo unspecified)
Prompt: Order the items by recorded pIC50; the first position goes to the largest value. Ranked list of labels, please, in the requested order.
Completion: 2, 1, 4, 3

(I) CSc1ccccc1C1Nc2cc(C)ccc2NC2=C1C(=O)CC(C)(C)C2 (stereo unspecified)
(II) Cc1ccc2c(c1)NC(c1ccccc1C(F)(F)F)C1=C(CC3(CCCC3)CC1=O)N2 (stereo in doubt; 30)
Prompt: When I and II are compared, which has the higher number for pIC50? Reply briefly: the label of your chosen item.
Completion: II

----------
experimental-target: UniProt P28336
test-details: Antagonist activity at human neuromedin B receptor transfected in HEK293 cells assessed as inhibition of 1 nM neuromedin B-induced myo-[3H]inositol phosphate accumulation after 60 mins by scintillation proximity assay
Format: functional, cell-based
pIC50: −log10 of the molar value.
endpoint-label: pIC50

(1) Cc1ccc2c(c1)NC(c1ccccc1C(F)(F)F)C1=C(CC3(CCCC3)CC1=O)N2 (single isomer, unassigned; (+))
(2) Cc1ccc2c(c1)NC(c1c(F)cccc1Cl)C1=C(CC(C)(C)CC1=O)N2 (configuration not stated)
Prompt: Which numeric pIC50 is bigger, that of 1 or that of 2 ? Refer to your chosen item by its label in the answer.
Completion: 1
